# protocol.text: in vivo
# Format: in vivo, mice
# details: mouse; intravenous 2 mg/kg, tumor tissue 24 h after administration; read-out: tumor accumulation of AZD3965
reported.metric: concentration at 24 h (ng/g)

compound	result
Cc1[nH]nc(C(F)(F)F)c1Cc1sc2c(c1C(=O)N1C[C@](C)(O)CO1)c(=O)n(C)c(=O)n2C(C)C	290

====

# protocol.text: in vivo
# Type: in vivo, mice
# details: mouse; intravenous 2 mg/kg AZD3965, plasma; read-out: area under the concentration-time (AUC) value

compound	AUC / ng·h/mL
Cc1[nH]nc(C(F)(F)F)c1Cc1sc2c(c1C(=O)N1C[C@](C)(O)CO1)c(=O)n(C)c(=O)n2C(C)C	5400

The reported numbers originate from patent US11786464B2.
